# Measurement target: T1, Human CD137 ECD (human)
# T1 construct: also called 4-1BB
# T1 sequence (chain, as listed by the source limits assumed): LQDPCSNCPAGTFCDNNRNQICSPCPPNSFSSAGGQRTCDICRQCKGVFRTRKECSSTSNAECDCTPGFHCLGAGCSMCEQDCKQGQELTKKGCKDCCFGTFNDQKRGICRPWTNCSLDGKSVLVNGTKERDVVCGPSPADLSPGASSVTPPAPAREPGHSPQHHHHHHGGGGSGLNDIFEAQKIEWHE
# Experiment notes: single mutant vs template dBBDu183H
Endpoint label: fold change of affinity (fold)
Provide only the numeric value, understood in fold.

Binder	fold change of affinity, fold
H183/L072 VH Y59G (antibody, name in Kabat numbering, V domains shown) VH: QVQLVESGGGLVQPGRSLRLSCAASGFTFSNAWMHWVRQAPGKGLEWVAQIKDKGNAYAAYGAPSVKGRFTISRDDSKNSIYLQMNSLKTEDTAVYYCHYVHYASASTVLPAFGVDAWGQGTTVTVSS VL: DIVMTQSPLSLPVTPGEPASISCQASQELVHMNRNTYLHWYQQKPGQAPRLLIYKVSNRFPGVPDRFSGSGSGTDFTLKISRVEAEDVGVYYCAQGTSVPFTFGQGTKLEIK	0.9
H183/L072 VH H93A (antibody, name in Kabat numbering, V domains shown) VH: QVQLVESGGGLVQPGRSLRLSCAASGFTFSNAWMHWVRQAPGKGLEWVAQIKDKGNAYAAYYAPSVKGRFTISRDDSKNSIYLQMNSLKTEDTAVYYCAYVHYASASTVLPAFGVDAWGQGTTVTVSS VL: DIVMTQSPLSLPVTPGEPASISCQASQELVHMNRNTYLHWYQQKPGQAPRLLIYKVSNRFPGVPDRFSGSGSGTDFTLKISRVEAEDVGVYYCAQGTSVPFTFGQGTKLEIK	0
H183/L072 VH A100fL (antibody, name in Kabat numbering, V domains shown) VH: QVQLVESGGGLVQPGRSLRLSCAASGFTFSNAWMHWVRQAPGKGLEWVAQIKDKGNAYAAYYAPSVKGRFTISRDDSKNSIYLQMNSLKTEDTAVYYCHYVHYASASTVLPLFGVDAWGQGTTVTVSS VL: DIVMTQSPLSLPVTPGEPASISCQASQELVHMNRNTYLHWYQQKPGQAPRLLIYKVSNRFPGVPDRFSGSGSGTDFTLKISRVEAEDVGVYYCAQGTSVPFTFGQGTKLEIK	0
H183/L072 VH F27Q (antibody, name in Kabat numbering, V domains shown) VH: QVQLVESGGGLVQPGRSLRLSCAASGQTFSNAWMHWVRQAPGKGLEWVAQIKDKGNAYAAYYAPSVKGRFTISRDDSKNSIYLQMNSLKTEDTAVYYCHYVHYASASTVLPAFGVDAWGQGTTVTVSS VL: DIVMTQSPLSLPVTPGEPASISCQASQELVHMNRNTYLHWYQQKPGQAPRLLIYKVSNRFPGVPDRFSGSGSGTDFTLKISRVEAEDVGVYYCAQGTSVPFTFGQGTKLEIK	0.2

Could you now consider this next binder?
Give the reported value of fold change of affinity for this record: H183/L072 VH A98P (antibody, name in Kabat numbering, V domains shown) VH: QVQLVESGGGLVQPGRSLRLSCAASGFTFSNAWMHWVRQAPGKGLEWVAQIKDKGNAYAAYYAPSVKGRFTISRDDSKNSIYLQMNSLKTEDTAVYYCHYVHYPSASTVLPAFGVDAWGQGTTVTVSS VL: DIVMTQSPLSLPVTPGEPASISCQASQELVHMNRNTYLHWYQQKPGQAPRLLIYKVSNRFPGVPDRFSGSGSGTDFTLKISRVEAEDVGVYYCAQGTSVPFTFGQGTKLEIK 0
